Reference source for all entries: paper PMC11767490

- measured-target: α-glucosidase (Sac. cerevisiae) (Saccharomyces cerevisiae, UniProt P53341)
- Construct: purchased Sigma Chemical Co
- Sequence (P53341 whole entry): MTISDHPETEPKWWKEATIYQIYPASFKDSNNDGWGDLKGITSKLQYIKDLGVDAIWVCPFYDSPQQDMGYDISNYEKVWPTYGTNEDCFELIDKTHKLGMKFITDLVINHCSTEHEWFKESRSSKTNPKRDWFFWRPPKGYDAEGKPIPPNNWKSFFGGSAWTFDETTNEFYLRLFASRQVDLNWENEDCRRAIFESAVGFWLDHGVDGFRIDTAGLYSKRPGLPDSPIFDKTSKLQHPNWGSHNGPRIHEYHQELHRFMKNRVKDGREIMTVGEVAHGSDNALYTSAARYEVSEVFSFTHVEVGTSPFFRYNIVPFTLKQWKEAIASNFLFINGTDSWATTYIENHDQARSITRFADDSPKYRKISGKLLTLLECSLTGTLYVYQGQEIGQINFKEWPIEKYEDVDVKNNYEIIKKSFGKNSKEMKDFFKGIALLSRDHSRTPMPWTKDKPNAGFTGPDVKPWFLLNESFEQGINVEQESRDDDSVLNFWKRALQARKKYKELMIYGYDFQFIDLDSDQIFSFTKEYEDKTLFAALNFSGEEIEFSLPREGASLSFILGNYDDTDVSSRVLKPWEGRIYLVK
- assay: glycosidase inhibition assay, α-glucosidase from yeast
- Assay type: biochemical
- experimental-context: pH 6.2, read-out: % inhibition at 1 mM concentration of inhibitor, 1 mM inhibitor; pH 6.2; negative values mean activation
- Description: A prepared sample of DAB-1 8 was also tested under the same conditions for ease of comparison. A first set of biological assays was effected at 1 mM concentration of inhibitor. […] Former results from our laboratories have always followed this empirical rule. […]
The following molecules are listed with their measured inhibition at 1000 µM values.
# output: bare number, implied unit %

Field: example entries. Status: answers known.
>  <molecule>
OC[C@@H]1[C@@H](O)[C@H](O)CN1Cc1ccc(CN2C[C@@H](O)[C@H](O)[C@H]2CO)cc1 [13b]

>  <inhibition at 1000 µM (%)>
95

$$$$
>  <molecule>
C=CC[C@@H]1[C@@H](O)[C@H](O)[C@@H](CO)N1CCOCCOCCN1[C@H](CO)[C@@H](O)[C@H](O)[C@H]1CC=C [16d]

>  <inhibition at 1000 µM (%)>
-20

$$$$
>  <molecule>
OC[C@@H]1[C@@H](O)[C@H](O)CN1CCCCCCCCN1C[C@@H](O)[C@H](O)[C@H]1CO [13c]

>  <inhibition at 1000 µM (%)>
88

$$$$
>  <molecule>
OC[C@@H]1[C@@H](O)[C@H](O)CN1Cc1cccc(CN2C[C@@H](O)[C@H](O)[C@H]2CO)c1 [13a]

>  <inhibition at 1000 µM (%)>
88

$$$$

Would you kindly look at the next entry?
Param item: OC[C@@H]1[C@@H](O)[C@H](O)CN1CCCOCCOCCOCCCN1C[C@@H](O)[C@H](O)[C@H]1CO [13e] ; param system: α-glucosidase (Sac. cerevisiae) (Saccharomyces cerevisiae, UniProt P53341); output inhibition at 1000 µM: 65

###

Property: % inhibition at 1 mM concentration of inhibitor; scope: individual molecules
- System: β-glucosidase (almond)
- assay: glycosidase inhibition assay, β-glucosidase from almond
- Format: biochemical
- experimental-context: 1 mM inhibitor; pH 5.6
Express the result in % but write the number alone.

Reference set (2 entries):
>  <molecule>
OC[C@H]1NC[C@@H](O)[C@@H]1O [DAB-1]

>  <result-value>
95

$$$$
>  <molecule>
OC[C@@H]1[C@@H](O)[C@H](O)CN1Cc1ccc(CN2C[C@@H](O)[C@H](O)[C@H]2CO)cc1 [13b]

>  <result-value>
16

$$$$

% inhibition at 1 mM concentration of inhibitor reading for OC[C@@H]1[C@@H](O)[C@H](O)CN1Cc1cccc(CN2C[C@@H](O)[C@H](O)[C@H]2CO)c1 [13a] : 13

###

Examples of compounds with documented inhibition at 1000 µM follow.
- measured-target: α-mannosidase (Jack bean) (Canavalia ensiformis)
- Construct: purchased Sigma Chemical Co
- Sequence (C0HJB3 whole entry): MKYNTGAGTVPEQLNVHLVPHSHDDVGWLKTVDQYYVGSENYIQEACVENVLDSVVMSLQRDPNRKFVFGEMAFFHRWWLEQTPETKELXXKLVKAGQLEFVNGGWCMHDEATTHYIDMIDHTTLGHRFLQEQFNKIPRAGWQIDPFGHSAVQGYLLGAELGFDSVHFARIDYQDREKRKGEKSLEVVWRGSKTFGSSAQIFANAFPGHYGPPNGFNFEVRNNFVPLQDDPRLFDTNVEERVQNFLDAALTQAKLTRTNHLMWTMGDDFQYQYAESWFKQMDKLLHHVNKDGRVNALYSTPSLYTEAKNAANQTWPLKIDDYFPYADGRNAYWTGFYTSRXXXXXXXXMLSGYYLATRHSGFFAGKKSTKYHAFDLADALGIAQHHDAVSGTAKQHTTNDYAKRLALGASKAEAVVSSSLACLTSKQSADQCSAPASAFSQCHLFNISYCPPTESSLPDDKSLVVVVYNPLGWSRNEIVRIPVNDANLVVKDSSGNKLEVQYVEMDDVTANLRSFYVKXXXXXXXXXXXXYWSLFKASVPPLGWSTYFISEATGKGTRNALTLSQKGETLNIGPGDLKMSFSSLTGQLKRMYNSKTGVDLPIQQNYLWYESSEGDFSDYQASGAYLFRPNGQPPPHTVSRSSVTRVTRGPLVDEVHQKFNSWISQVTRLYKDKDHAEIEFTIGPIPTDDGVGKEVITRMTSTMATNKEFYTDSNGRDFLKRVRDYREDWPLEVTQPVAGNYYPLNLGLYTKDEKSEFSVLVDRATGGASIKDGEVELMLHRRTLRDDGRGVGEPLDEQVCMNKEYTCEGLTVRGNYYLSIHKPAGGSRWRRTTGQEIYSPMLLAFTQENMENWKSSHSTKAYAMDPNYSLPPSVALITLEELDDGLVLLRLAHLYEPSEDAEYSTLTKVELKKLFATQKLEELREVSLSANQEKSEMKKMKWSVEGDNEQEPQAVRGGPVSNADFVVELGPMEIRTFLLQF
- assay: glycosidase inhibition assay, α-mannosidase from Jack bean
- Format: biochemical
- experimental-context: 1 mM inhibitor; pH 5.6; read-out: % inhibition at 1 mM concentration of inhibitor

Here's what some known entries look like.
>  <compound>
OC[C@H]1NC[C@@H](O)[C@@H]1O [DAB-1]

>  <measured-target>
α-mannosidase (Jack bean) (Canavalia ensiformis)

>  <inhibition at 1000 µM>
> 95%

$$$$
>  <compound>
OC[C@@H]1[C@@H](O)[C@H](O)CN1Cc1ccc(CN2C[C@@H](O)[C@H](O)[C@H]2CO)cc1 [13b]

>  <measured-target>
α-mannosidase (Jack bean) (Canavalia ensiformis)

>  <inhibition at 1000 µM>
84%

$$$$

α-mannosidase (Jack bean) (Canavalia ensiformis) inhibition at 1000 µM of OC[C@@H]1[C@@H](O)[C@H](O)CN1CCCOCCOCCOCCCN1C[C@@H](O)[C@H](O)[C@H]1CO [13e] is > 95%

Value sought: inhibition at 1000 µM, system α-mannosidase (Jack bean) (Canavalia ensiformis), item OC[C@@H]1[C@@H](O)[C@H](O)CN1CCCCCCCCN1C[C@@H](O)[C@H](O)[C@H]1CO [13c] . Result: > 95%

###

- Tested on: α-rhamnosidase (Asp. niger)
- assay: glycosidase inhibition assay, α-rhamnosidase from A. niger
- Type: biochemical
- experimental-context: 1 mM inhibitor; pH 5.6
- Description: A prepared sample of DAB-1 8 was also tested under the same conditions for ease of comparison. A first set of biological assays was effected at 1 mM concentration of inhibitor. […] Former results from our laboratories have always followed this empirical rule. […]
experimental-endpoint: % inhibition at 1 mM concentration of inhibitor (%)
Return type: number; implicit unit %.

Some solved cases for reference:
>  <compound>
OC[C@@H]1[C@@H](O)[C@H](O)CN1Cc1ccc(CN2C[C@@H](O)[C@H](O)[C@H]2CO)cc1 [13b]

>  <units-text>
%

>  <result-value>
24

$$$$
>  <compound>
OC[C@@H]1[C@@H](O)[C@H](O)CN1CCCCCCCCN1C[C@@H](O)[C@H](O)[C@H]1CO [13c]

>  <units-text>
%

>  <result-value>
69

$$$$
>  <compound>
OC[C@@H]1[C@@H](O)[C@H](O)CN1CCCOCCOCCOCCCN1C[C@@H](O)[C@H](O)[C@H]1CO [13e]

>  <units-text>
%

>  <result-value>
18

$$$$
>  <compound>
OC[C@@H]1[C@@H](O)[C@H](O)CN1Cc1cccc(CN2C[C@@H](O)[C@H](O)[C@H]2CO)c1 [13a]

>  <units-text>
%

>  <result-value>
67

$$$$

Value of % inhibition at 1 mM concentration of inhibitor reported for the compound OC[C@@H]1[C@@H](O)[C@H](O)CN1CCOCCOCCN1C[C@@H](O)[C@H](O)[C@H]1CO [13d] is 46

% inhibition at 1 mM concentration of inhibitor reported for this compound `OC[C@H]1NC[C@@H](O)[C@@H]1O` : 34

The recorded % inhibition at 1 mM concentration of inhibitor for entry C=CC[C@@H]1[C@@H](O)[C@H](O)[C@@H](CO)N1CCOCCOCCN1[C@H](CO)[C@@H](O)[C@H](O)[C@H]1CC=C [16d] equals 25

###

- Tested on: β-GlcNAc-ase (Jack bean)
- assay: glycosidase inhibition assay, β-N-acetylglucosaminidase from Jack bean
- Assay type: biochemical
- experimental-context: 1 mM inhibitor; pH 5.6; negative values mean activation
Marks after values point to notes of the source that are not given here.
experimental-endpoint: % inhibition at 1 mM concentration of inhibitor

Simply: OC[C@H]1NC[C@@H](O)[C@@H]1O [DAB-1] , β-GlcNAc-ase (Jack bean), % inhibition at 1 mM concentration of inhibitor = 14%

###

- measured-target: β-galactosidase (Asp. orizae) (Aspergillus oryzae, UniProt Q2UCU3)
- Construct: purchased Sigma Chemical Co
- Sequence (Q2UCU3 19-1005): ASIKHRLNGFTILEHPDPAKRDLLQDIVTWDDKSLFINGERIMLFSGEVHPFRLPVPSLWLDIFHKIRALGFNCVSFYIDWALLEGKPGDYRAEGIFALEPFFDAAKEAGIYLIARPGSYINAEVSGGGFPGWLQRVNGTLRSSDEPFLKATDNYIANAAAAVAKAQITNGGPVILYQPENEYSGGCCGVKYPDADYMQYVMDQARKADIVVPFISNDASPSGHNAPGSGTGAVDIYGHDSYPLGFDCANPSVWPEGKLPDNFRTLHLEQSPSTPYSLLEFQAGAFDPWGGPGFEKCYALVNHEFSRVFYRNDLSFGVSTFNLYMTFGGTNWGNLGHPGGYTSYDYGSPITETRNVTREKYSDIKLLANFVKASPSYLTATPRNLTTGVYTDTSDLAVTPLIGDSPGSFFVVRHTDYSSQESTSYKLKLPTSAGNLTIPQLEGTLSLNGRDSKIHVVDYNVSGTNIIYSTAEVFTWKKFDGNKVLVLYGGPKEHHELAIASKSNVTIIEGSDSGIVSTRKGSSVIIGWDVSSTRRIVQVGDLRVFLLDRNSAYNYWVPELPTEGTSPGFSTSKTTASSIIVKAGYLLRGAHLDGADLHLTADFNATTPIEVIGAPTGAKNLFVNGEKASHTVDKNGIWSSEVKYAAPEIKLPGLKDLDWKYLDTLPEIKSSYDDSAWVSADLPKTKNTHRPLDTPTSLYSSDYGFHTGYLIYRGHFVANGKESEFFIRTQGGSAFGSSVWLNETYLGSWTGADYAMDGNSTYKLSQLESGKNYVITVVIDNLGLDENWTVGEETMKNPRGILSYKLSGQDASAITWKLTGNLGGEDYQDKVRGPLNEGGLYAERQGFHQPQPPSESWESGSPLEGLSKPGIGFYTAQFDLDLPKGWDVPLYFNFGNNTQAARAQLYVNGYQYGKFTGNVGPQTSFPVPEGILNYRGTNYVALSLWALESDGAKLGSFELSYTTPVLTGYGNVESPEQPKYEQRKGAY
- assay: glycosidase inhibition assay, β-galactosidase from A. orizae
- Type: biochemical
- experimental-context: pH 5.6, read-out: % inhibition at 1 mM concentration of inhibitor
Label true (1) when inhibition at 1000 µM >= 80%; otherwise false (0).

>  <molecule>
OC[C@@H]1[C@@H](O)[C@H](O)CN1Cc1cccc(CN2C[C@@H](O)[C@H](O)[C@H]2CO)c1 [13a]

>  <group>
true (1)

$$$$

Please indicate if the recorded inhibition at 1000 µM for OC[C@@H]1[C@@H](O)[C@H](O)CN1Cc1ccc(CN2C[C@@H](O)[C@H](O)[C@H]2CO)cc1 [13b] meets or exceeds 80%. true (1)

Evaluate C=CC[C@@H]1[C@@H](O)[C@H](O)[C@@H](CO)N1CCOCCOCCN1[C@H](CO)[C@@H](O)[C@H](O)[C@H]1CC=C [16d] : inhibition at 1000 µM at minimum 80%? false (0)

###

- measured-target: β-glucosidase (Asp. niger) (Aspergillus niger)
- Construct: purchased Sigma Chemical Co
- Sequence (A2RAL4 20-860): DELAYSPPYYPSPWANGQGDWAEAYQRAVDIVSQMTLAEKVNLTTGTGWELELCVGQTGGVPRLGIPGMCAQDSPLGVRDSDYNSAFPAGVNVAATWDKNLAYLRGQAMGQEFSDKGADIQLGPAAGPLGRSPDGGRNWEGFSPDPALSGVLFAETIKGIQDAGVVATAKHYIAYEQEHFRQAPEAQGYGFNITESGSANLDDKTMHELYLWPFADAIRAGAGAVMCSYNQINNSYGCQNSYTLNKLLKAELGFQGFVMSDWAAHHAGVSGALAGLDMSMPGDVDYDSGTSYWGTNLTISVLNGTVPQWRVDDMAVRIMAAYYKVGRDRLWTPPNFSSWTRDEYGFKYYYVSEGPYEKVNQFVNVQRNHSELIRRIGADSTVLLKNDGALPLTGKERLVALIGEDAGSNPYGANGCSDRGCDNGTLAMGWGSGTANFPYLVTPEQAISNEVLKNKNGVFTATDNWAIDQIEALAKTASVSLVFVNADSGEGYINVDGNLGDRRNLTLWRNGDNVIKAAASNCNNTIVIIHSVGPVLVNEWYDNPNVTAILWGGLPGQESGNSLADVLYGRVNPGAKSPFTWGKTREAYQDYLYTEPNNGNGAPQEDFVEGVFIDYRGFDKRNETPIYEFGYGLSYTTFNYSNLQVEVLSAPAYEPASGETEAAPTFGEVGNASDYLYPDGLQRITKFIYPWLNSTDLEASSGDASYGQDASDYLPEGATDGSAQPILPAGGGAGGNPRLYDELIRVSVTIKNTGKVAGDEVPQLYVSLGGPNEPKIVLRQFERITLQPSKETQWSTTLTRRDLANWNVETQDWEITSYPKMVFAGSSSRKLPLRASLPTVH
- assay: glycosidase inhibition assay, β-glucosidase from A. niger
- Assay type: biochemical
- experimental-context: pH 5.6, 1 mM inhibitor; pH 5.6; read-out: % inhibition at 1 mM concentration of inhibitor
experimental-endpoint: inhibition at 1000 µM

Example results:
>  <compound>
OC[C@@H]1[C@@H](O)[C@H](O)CN1Cc1cccc(CN2C[C@@H](O)[C@H](O)[C@H]2CO)c1 [13a]

>  <measured-target>
β-glucosidase (Asp. niger) (Aspergillus niger)

>  <experimental-endpoint>
inhibition at 1000 µM

>  <result-value>
24%

$$$$
>  <compound>
OC[C@@H]1[C@@H](O)[C@H](O)CN1CCOCCOCCN1C[C@@H](O)[C@H](O)[C@H]1CO [13d]

>  <measured-target>
β-glucosidase (Asp. niger) (Aspergillus niger)

>  <experimental-endpoint>
inhibition at 1000 µM

>  <result-value>
~90%

$$$$

Consider now this further compound.
Entry OC[C@H]1NC[C@@H](O)[C@@H]1O [DAB-1] , β-glucosidase (Asp. niger) (Aspergillus niger) data, inhibition at 1000 µM value: > 95%
